In this section we review reported solubility values for a set of compounds.
# assay.remarks: Aqueous solubility measurements (stepwise solvent addition, stereo microscope)
# Assay type: physicochemical
# reported.conditions: 0.9% NaCl solution, pH 5, saline or isotonic, thermodynamic from solid, 0.9% NaCl; read-out: solubility, conc.
Give just the numeric value; mM need not be written.

Q. Which solubility value belongs to CC(C)[C@H](NC(=O)CCN1CCN(CCOCCN2C(=O)C=CC2=O)CC1)C(=O)N[C@@H](CCCNC(N)=O)C(=O)Nc1ccc(CO)cc1 [Mal-O-PIP-ValCitPAB-OH] ?
A. 1500

Q. Which solubility value belongs to CC(C)[C@H](NC(=S)NCCN1CCN(CCOCCN2C(=O)C=CC2=O)CC1)C(=O)N[C@@H](CCCNC(N)=O)C(=O)Nc1ccc(CO)cc1 [Mal-O-PIP-ThioU-ValCitPAB-OH] ?
A. 1400

More entries:
Q. Which solubility value belongs to CC(C)C(NC(=O)CCOCCOCCOCCOCCN1C(=O)C=CC1=O)C(=O)NC(CCCNC(N)=O)C(=O)Nc1ccc(CO)cc1 (stereo not shown) [Mal-PEG4-ValCitPAB-OH, reference compound] ?
A. 40

Q. Which solubility value belongs to CC(C)[C@H](NC(=O)CCC(=O)NCCN1CCN(CCOCCN2C(=O)C=CC2=O)CC1)C(=O)N[C@@H](CCCNC(N)=O)C(=O)Nc1ccc(CO)cc1 [Mal-O-PIP-Succ-ValCitPAB-OH] ?
A. 1300
